In this section, each of the compounds is paired with its reported TGI.
Test system: PC-3 prostate
Assay: NCI tumour cell line growth inhibition, 48 h

Example entries begin here.
Compound: COC1CCC(OC)C(c2nc3sccn3c2/C=N/N=C(N)N)C1 (stereo not given)
Observed Measurement: > 65.4 µM
//
Compound: COc1ccc(/C=C(\C#N)c2cc(OC)c(OC)c(OC)c2)cc1
Observed Measurement: > 87.1 µM
//
Compound: COc1ccc(Cn2c(=O)c(OS(=O)(=O)C(F)(F)F)c(C)c3cc4ccccc4cc32)cc1
Observed Measurement: > 100 µM

State its TGI on PC-3 prostate: `COC(=O)N[C@@H](C)CNc1nccc(-c2cn(C(C)C)nc2-c2cc(Cl)cc(NS(C)(=O)=O)c2F)n1`
> 100 µM

Repeat for the following compound: `CC(C)=CCNc1ncnc2c1ncn2CCC(=O)O`
> 100 µM

Repeat for the following compound: COc1c(OC2OC(C)C(O)C(O)C2O)c(OC)c2oc(-c3ccc(O)cc3)cc(=O)c2c1O (stereo not given)
> 100 µM

----------
System: LOX IMVI melanoma
Experiment: NCI tumour cell line growth inhibition, 48 h; in the data active = GI50 below about 0.43 µM; inactive = the rest
In this exercise, the only acceptable responses are active, inactive

Solved entries:
Compound: COC1CCC(OC)C(c2nc3sccn3c2/C=N/N=C(N)N)C1 (centres undefined)
Answer Label: inactive
--
Compound: CC(C)(O)c1cc(Nc2cc(Oc3cn(C4CC4)nc3C3CCOCC3)ccn2)ccn1
Answer Label: inactive
--
Compound: COc1cc(N)c(Cl)cc1C(=O)N[C@@H]1CCN(CCCOc2ccc(F)cc2)C[C@@H]1OC
Answer Label: inactive

Just curious, what result did `CCOc1ccc2cc(-c3nn(CC4CCN(C)CC4)c4ncnc(N)c34)ccc2c1` get here?
inactive

Repeat for the following compound: `C=C(CN1CCc2ccccc2C1)c1ccc(CCCC(=O)Nc2ccccc2N)cc1`
inactive

Repeat for the following compound: `Cc1nc(C(=O)OCc2ccccc2)cc(OCc2ccccc2)c1C`
inactive

Repeat for the following compound: CC(C)=CC(=O)OC1C2C(C)=CC(=O)C(O)C2(C)C2C3(O)OCC24C(CC(=O)OC14)C(C)C3O (centres undefined)
active

Repeat for the following compound: `C/C(=N\NC(=S)N1CCCC1)c1ccccn1`
active

Repeat for the following compound: `COc1ccc2c(CN3CCCC[C@H]3O)cc3cc4c(cc3c2c1)OCO4`
active

----------
In this section, each of the compounds is paired with its reported TGI.
Tested on: SK-MEL-5 melanoma
Assay: NCI tumour cell line growth inhibition, 48 h

Example entries begin here.
Compound: CCCCn1c(-c2ccccc2)cs/c1=N\NC(=O)Cn1c(C)nc2ccccc21
Observed Measurement: > 100 µM

Compound: COc1ccc(/C=C/C(=O)c2cc(CN(C)C)c(O)c(CN(C)C)c2)cc1
Observed Measurement: 32.4 µM

Compound: CC(C)(C)N=C1C(=O)C2(C)CCC1C2(C)C (stereo unspecified)
Observed Measurement: > 100 µM

Compound: O=C(O)C12C=CC(C1)c1ccccc12 (stereo unspecified)
Observed Measurement: > 100 µM

# input compound: `C/C(=C\c1ccccc1)C(=O)c1c(C)cc(C)cc1C` ; wanted: its TGI
> 100 µM

Repeat for the following compound: CNC(=O)NCCCCC(NC(C)=O)C(=O)NCc1ccccc1 (stereo unspecified)
> 100 µM

----------
System: TK-10 renal
Assay: NCI tumour cell line growth inhibition, 48 h; in the data active = GI50 below about 0.43 µM; inactive = the rest
In this exercise, the only acceptable responses are yes (active), no (inactive)

Solved entries:
Compound String: CN(C)CCN=c1nc2c(c(N)n1-c1ccccc1)c(=S)n(-c1ccccc1)c(=S)n2-c1ccccc1
Answer Label: no
//
Compound String: C/C(=N\NC(=S)N1CCCC1)c1ccccn1
Answer Label: yes

Just curious, what result did `S=C(Nc1ccc(-c2nc3ccccc3s2)cc1)Nc1ccc(-c2nc3ccccc3s2)cc1` get here?
no

Repeat for the following compound: `Cc1c(-c2ccc(-c3ccccc3F)cc2)nc2ccc(F)cc2c1C(=O)O`
no

Repeat for the following compound: `CN(CCOc1ccc(NS(C)(=O)=O)cc1)CCc1ccc(NS(C)(=O)=O)cc1`
no

----------
Tested on: HOP-62 NSCLC
Assay: NCI tumour cell line growth inhibition, 48 h
Readout Type: TGI

# input compound: c1ccc(N2CCN(CCN3CCc4c([nH]c5ccccc45)C3c3cccnc3)CC2)cc1 (stereo unspecified) ; wanted: its TGI
> 100 µM

----------
Tested on: RPMI-8226 leukemia
Assay: NCI tumour cell line growth inhibition, 48 h
Readout Type: TGI

Example entries begin here.
Molecule: COc1ccc(/C=C/C(=O)c2cc(CN(C)C)c(O)c(CN(C)C)c2)cc1
TGI: > 100 µM
//
Molecule: COc1cc(C2CC(c3ccc(Cl)cc3)=NN2C(C)=O)ccc1Oc1ccnc2cc(Cl)ccc12 (centres undefined)
TGI: > 100 µM
//
Molecule: N.N.N.N.O=S([O-])[O-].[Co+3].[N-]=[N+]=[N-]
TGI: > 100 µM
//
Molecule: Oc1ccc(Nc2nc(Cl)c3[nH]cnc3n2)cc1
TGI: > 100 µM
//
Molecule: C[C@]12CCC3c4ccc(O)cc4CCC3C1CC[C@@H]2NC(=O)/C=C/c1ccc(O)c(O)c1 (some centres undefined)
TGI: 24.8 µM
//
Molecule: O=C1c2ccccc2-c2c1c1ccccc1c(=O)n2CCNCCNCCNCCNCCn1c2c(c3ccccc3c1=O)C(=O)c1ccccc1-2
TGI: 0.187 µM
//
Molecule: COc1ccc(C(=O)Cn2c(C(=O)c3ccc(Cl)cc3)nc(-c3ccccc3)c2-c2ccccc2)cc1
TGI: > 100 µM
//
Molecule: c1ccc(C2N=C(c3ccccn3)C(c3ccccn3)=NC2c2ccccc2)cc1 (centres undefined)
TGI: > 100 µM

# next molecule below
# input molecule: COc1cccc(C2C(C#N)=C(N)Oc3cc(OCCCCCC[P+](c4ccccc4)(c4ccccc4)c4ccccc4)ccc32)c1 (centres undefined) ; wanted: its TGI
0.659 µM

----------
Test system: HCC-2998 colon
Assay: NCI tumour cell line growth inhibition, 48 h
Readout Type: TGI

Compound: CNCC(SC)c1ccc(O)c(O)c1 (stereo unspecified)
Observed Measurement: 31.2 µM

Compound: CCCCn1c(-c2ccccc2)cs/c1=N\NC(=O)Cn1c(C)nc2ccccc21
Observed Measurement: > 100 µM

Compound: c1ccc(N2CCN(CCN3CCc4c([nH]c5ccccc45)C3c3cccnc3)CC2)cc1 (stereo unspecified)
Observed Measurement: > 100 µM

Compound: CC(=O)OC1C2CCC3CC2C2(SCCS2)C31 (stereo unspecified)
Observed Measurement: > 100 µM

# input compound: C#CC(O)/C=C/C(O)CCCC(O)CC#CC(O)C#CCCCCC(O)/C=C/CCCC(=O)CCCCCCCCCCCCCCCC(O)C(O)C#CC(=O)O (stereo unspecified) ; wanted: its TGI
> 25 µM

Repeat for the following compound: `CC(C)=CCNc1ncnc2c1ncn2CCC(=O)O`
> 100 µM

Repeat for the following compound: O=C(O)C(Cc1ccccc1)N1C(=O)/C(=C/C(Cl)=C/c2ccc([N+](=O)[O-])cc2)SC1=S (stereo unspecified)
3.5 µM

Repeat for the following compound: `O=C1C=C(NCCc2ccccc2)c2ccccc2C1=O`
4.09 µM

Repeat for the following compound: `CSCc1ncc(-c2ccc(C(F)(F)F)cc2)c(NC2CCCCCC2)n1`
> 10 µM

Repeat for the following compound: `Cc1cc(C)c(S(=O)(=O)N(CCCCCN)OCCCN)c(C)c1`
20 µM

Repeat for the following compound: `Cc1noc(-c2ccc(C(=O)O)[nH]2)c1Br`
> 100 µM

----------
Tested on: SF-268 CNS
Assay: NCI tumour cell line growth inhibition, 48 h
In this section, each of the compounds is paired with its reported TGI.

Example entries begin here.
Compound: COc1ccc(/C=C/C(=O)c2cc(CN(C)C)c(O)c(CN(C)C)c2)cc1
Assay System: SF-268 CNS
TGI: > 100 µM

Compound: CCOP(=O)(OCC)C(c1ccccc1)N(C(=O)NC(F)(F)F)c1ccc(C)cc1 (stereo unspecified)
Assay System: SF-268 CNS
TGI: > 100 µM

Compound: O=C(NCc1cn(Cc2cccc(Oc3ccccc3)c2)nn1)c1cccnc1NCc1ccc(Cl)cc1
Assay System: SF-268 CNS
TGI: > 100 µM

# input compound: `Cc1nc(C(=O)OCc2ccccc2)cc(OCc2ccccc2)c1C` ; wanted: its TGI
41.6 µM

Repeat for the following compound: `C[C@]12CC[C@H]3[C@@H](CC=C4C[C@@H](O)CC[C@@]43C)[C@@H]1C/C(=C\c1ccc([N+](=O)[O-])cc1)[C@@H]2O`
> 100 µM

Repeat for the following compound: `COC(=O)N[C@@H](C)CNc1nccc(-c2cn(C(C)C)nc2-c2cc(Cl)cc(NS(C)(=O)=O)c2F)n1`
> 100 µM

Repeat for the following compound: `CCOC1=C/C(=N\Nc2ccc([N+](=O)[O-])cc2)CCC1`
44.9 µM

Repeat for the following compound: `O=C(NNC(=O)c1ccncc1)C(=O)Nc1cc(Cl)c(Cl)cc1Cl`
> 100 µM

Repeat for the following compound: `CCOC(=O)c1sc(NC(=O)COc2ccc(/C=C3\CCc4cc(OC)ccc4C3=O)cc2)nc1C`
26.5 µM

Repeat for the following compound: `COC(=O)CCCc1nc2ccccc2nc1N=Nc1ccccc1`
> 100 µM

Repeat for the following compound: c1ccc(N2CCN(CCN3CCc4c([nH]c5ccccc45)C3c3cccnc3)CC2)cc1 (stereo unspecified)
> 100 µM

Repeat for the following compound: `COc1c(NC(C)=O)c2ccccc2c2ccccc12`
> 100 µM

Repeat for the following compound: CC(=O)c1c(-c2ccco2)c(C#N)c(=S)n(C2OC(CO)C(O)C(O)C2O)c1C (stereo unspecified)
> 100 µM

Repeat for the following compound: CNCC(SC)c1ccc(O)c(O)c1 (stereo unspecified)
> 100 µM

Repeat for the following compound: c1ccc(C2N=C(c3ccccn3)C(c3ccccn3)=NC2c2ccccc2)cc1 (stereo unspecified)
> 100 µM

Repeat for the following compound: `Oc1ccc(Nc2nc(Cl)c3[nH]cnc3n2)cc1`
> 100 µM
